Target: SgGAPDH (Streptococcus gordonii)
Sequence (Q68AZ3 entry or part of it): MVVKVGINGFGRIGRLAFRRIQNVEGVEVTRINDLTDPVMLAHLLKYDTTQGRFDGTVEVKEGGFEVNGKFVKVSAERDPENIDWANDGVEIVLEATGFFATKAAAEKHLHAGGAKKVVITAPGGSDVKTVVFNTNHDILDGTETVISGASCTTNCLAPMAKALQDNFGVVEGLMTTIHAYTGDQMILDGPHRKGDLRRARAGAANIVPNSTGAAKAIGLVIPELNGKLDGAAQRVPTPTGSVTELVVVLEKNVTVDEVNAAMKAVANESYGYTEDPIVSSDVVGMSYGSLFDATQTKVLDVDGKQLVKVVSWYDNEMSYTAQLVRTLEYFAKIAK
REPORTED_ENDPOINT: pKd
Scale note: pKd = -log10(concentration in M).

INPUT: Request: pKd, test system SgGAPDH (Streptococcus gordonii), entry C=CC1=C(C)C2=Cc3c(C=C)c(C)c4[n]3[Fe]([Cl])[n]3c(c(C)c(CCC(=O)O)c3=CC3=NC(=C4)C(C)=C3CCC(=O)O)=CC1=N2 [Fe(III)heme]
OUTPUT: 5.77
